target: human kinase Mps-1 (Homo sapiens); construct: N-terminally GST-tagged human full length recombinant Mps-1 kinase; GST (N); purchased Invitrogen, Karslruhe, Germany PV4071; test: Mps-1 kinase assay (TR-FRET) with 2 mM ATP; assay type: biochemical; details: IC50 in an Mps-1 kinase assay with a concentration of 2 mM ATP
Sequence (P33981 whole entry): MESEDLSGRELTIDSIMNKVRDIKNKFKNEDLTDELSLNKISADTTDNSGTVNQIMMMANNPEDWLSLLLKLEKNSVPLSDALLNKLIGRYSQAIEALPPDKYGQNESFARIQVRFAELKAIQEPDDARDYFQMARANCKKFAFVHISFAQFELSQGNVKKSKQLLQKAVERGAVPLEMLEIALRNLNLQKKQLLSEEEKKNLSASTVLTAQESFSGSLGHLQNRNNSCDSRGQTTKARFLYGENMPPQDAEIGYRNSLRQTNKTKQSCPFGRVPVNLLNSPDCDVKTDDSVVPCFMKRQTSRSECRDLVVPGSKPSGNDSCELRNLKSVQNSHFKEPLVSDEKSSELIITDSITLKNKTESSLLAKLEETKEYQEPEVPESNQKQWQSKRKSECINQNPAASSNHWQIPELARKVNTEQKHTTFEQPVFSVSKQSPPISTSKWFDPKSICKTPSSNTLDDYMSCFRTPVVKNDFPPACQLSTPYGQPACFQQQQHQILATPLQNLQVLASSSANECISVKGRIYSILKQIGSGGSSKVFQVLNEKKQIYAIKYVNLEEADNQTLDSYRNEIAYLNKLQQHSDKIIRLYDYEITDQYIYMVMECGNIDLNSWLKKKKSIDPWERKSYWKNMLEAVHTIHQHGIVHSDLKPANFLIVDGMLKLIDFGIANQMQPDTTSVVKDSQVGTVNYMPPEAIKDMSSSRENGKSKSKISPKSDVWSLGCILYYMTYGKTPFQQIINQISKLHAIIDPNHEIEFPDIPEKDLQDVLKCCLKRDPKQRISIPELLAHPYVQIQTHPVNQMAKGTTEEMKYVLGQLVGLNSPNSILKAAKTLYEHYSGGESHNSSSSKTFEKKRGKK
READOUT KIND: IC50

MOLECULE	STUDY SYSTEM	IC50
C[C@@H](C(=O)Nc1ccc(-c2ccc3nc(Nc4ccc(C(=O)N5CC(F)C5)cc4OCC(F)(F)F)nn3c2)cc1)c1ccc(F)cc1	human kinase Mps-1 (Homo sapiens)	< 2 nM
COc1cc(C(=O)N2CCC2)ccc1Nc1nc2ccc(-c3ccc(NC(=O)[C@H](C)c4ccc(F)cc4)cc3)cn2n1	human kinase Mps-1 (Homo sapiens)	< 2 nM

// query Let me know recorded IC50 for "C[C@@H](C(=O)Nc1ccc(-c2ccc3nc(Nc4ccc(S(C)(=O)=O)cc4OCC(F)(F)F)nn3c2)cc1)c1ccc(F)cc1" , thanks.
// result < 2 nM
